Test system: NCI-H23
Test method notes: NCI tumour cell line growth inhibition, 48 h
The source made the active and inactive calls. Rule as the data show it: active = GI50 up to about 1.1 µM and inactive = higher.
Quick reference for GI50 among some compounds

Example compounds with recorded GI50:
[[record]]
compound = "CC(=O)OC1C/C(C)=C/CCC(C)/C=C/C2(C)CCC(C(C)(C)O)C12 (stereo not given)"
recorded_result = "42.5 µM (inactive)"

[[record]]
compound = "O=C(O)C1=C(O)C(C(=O)O)C23CCCCCCCCCCC12C(C(=O)O)C(O)=C3C(=O)O (stereo not given)"
recorded_result = "> 100 µM (inactive)"

[[record]]
compound = "CCC1(CC)C(=O)NN(C(=O)c2ccc(Cl)cc2)C1=O"
recorded_result = "> 100 µM (inactive)"


Look up GI50 for this compound: Cc1ccc(-c2cc(-c3ccccc3)c(C#N)c(=O)[nH]2)cc1
> 100 µM (inactive)

Entry O=C(Nc1ccc(Cl)cc1Cl)C1C(=O)OC2(CCCCC2)OC1=O please
4.4 µM (inactive)
